I'd be grateful if you could share measured z-score for these entries.
# test.protocol: MELAS cybrid and Rieske KO viability enhancers – cell-based, MELAS cybrids, Rieske KO mouse fibroblasts, CellTiter-Glo, primary screen (AID 1508586);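 further: test concentration not given here; z relative to plate mean and SD of compound and empty wells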
# cond: Rieske KO mouse fibroblast survival, low glucose, CellTiter-Glo 72 h
In your answer, state the number alone without any accompanying words.

Request: Name the recorded z-score for CCCC(=O)Nc1ncnc2c1ncn2[C@@H]1O[C@@H]2OP(=O)(O)OC[C@H]2[C@H]1OC(=O)CCC .
Response: 0.0496

Request: Would you mind telling me what z-score value was observed for CC(=O)Nc1cccc2c1c(Sc1ccc(Cl)cc1)c(C)n2CC(=O)O ?
Response: -2.23

Request: Reported z-score, compound COc1ccc(CNCc2cccc3ccccc23)cc1 : ____
Response: -0.0397

Request: Consider the compound shown here: O=C(OC1Cc2c(O)cc(O)cc2OC1c1cc(O)c(O)c(O)c1)c1cc(O)c(O)c(O)c1 (centres undefined) What is its recorded z-score?
Response: -0.151

Request: Requested read-out: z-score. Entry: COc1cc(N(C)CC2COc3ccccc3O2)nc(N)n1 (centres undefined)
Response: -0.0472

Request: Value lookup for z-score; key = Cn1c(=O)ccc2ccccc21
Response: 0.0614

Request: State the recorded z-score for this entry: Cc1cc(C)nc(-c2cnn(CC(=O)Nc3cnn(C)n3)c2)n1
Response: -0.562

Request: Tell me the measured z-score of OC(CNCC(O)C1CCc2cc(F)ccc2O1)C1CCc2cc(F)ccc2O1 (centres undefined) , please.
Response: 2.88

Request: What does the record list as z-score for CC1(C)C(O[C@H]2OC(C(=O)O)C(O)C(O)C2O[C@@H]2OC(C(=O)O)C(O)C(O)C2O)CC[C@@]2(C)[C@H]3C(=O)C=C4[C@@H]5C[C@@](C)(C(=O)O)CC[C@]5(C)CC[C@@]4(C)[C@]3(C)CC[C@@H]12 (some centres undefined) ?
Response: -0.114

* * *

# test.protocol: compounds altering Cy5-DNA-NS3h complex signal – biochemical, LOPAC1280, artefact control for HCV NS3 helicase inhibitor project (AID 687037)
# cond: Cy5-DNA-NS3h complex fluorescence interference counterscreen
property: fluorescence ratio (interference)
Number only, please.

Request: What value of fluorescence ratio (interference) has been recorded for this entry: CC1C(=O)N(C)C(=O)c2nc[nH]c21 (stereo not drawn)
Response: 0.9

Request: Which fluorescence ratio (interference) value is on record for CCCn1c(=O)c2[nH]c(-c3ccc(S(=O)(=O)O)cc3)nc2n(CCC)c1=O ?
Response: 1

Request: Return reported fluorescence ratio (interference); argument: COc1cc(CC(=O)O)ccc1O
Response: 1

Request: Field request: fluorescence ratio (interference) | item: C=C1C[C@@]23CC[C@H]4[C@@](C)(CCC[C@@]4(C)C(=O)OC4OC(CO)C(O)C(O)C4O)[C@@H]2CC[C@]1(OC1OC(CO)C(O)C(O)C1OC1OC(CO)C(O)C(O)C1O)C3 (stereo partly drawn)
Response: 1

Request: Give its fluorescence ratio (interference) value. Item: C=CCN1CCc2c(cc(O)c(O)c2Br)[C@@H](c2ccccc2)C1
Response: 1

Request: For Cc1ccc2nc(CN(CCN(Cc3nc4ccc(C)cc4[nH]3)Cc3nc4ccc(C)cc4[nH]3)Cc3nc4ccc(C)cc4[nH]3)[nH]c2c1 , what is its reported fluorescence ratio (interference)?
Response: 1

Request: Consider the compound shown here: Fc1cccc(/C=N\N=C/c2cccc(F)c2)c1 What is its recorded fluorescence ratio (interference)?
Response: 1

Request: Request the reported fluorescence ratio (interference) associated with NCCC1CCCC(CCN)N1 (stereo not drawn)
Response: 0.9

Request: Record request: fluorescence ratio (interference) value, item NCC(O)C1CCCCCCC1 (stereo not drawn)
Response: 1

Request: Name the recorded fluorescence ratio (interference) for CCCCS(=N)(=O)CC[C@H](N)C(=O)O (stereo partly drawn) .
Response: 1

Request: Reported fluorescence ratio (interference) for Cc1nc(N=Nc2cc(S(=O)(=O)O)c3cc([N+](=O)[O-])cc(S(=O)(=O)O)c3c2)c(COP(=O)(O)O)c(C=O)c1O : what is it?
Response: 0.8

Request: Which fluorescence ratio (interference) value is on record for COc1cc2c(CCNC(C)=O)c[nH]c2cc1O ?
Response: 1

Request: Param item = COc1ccc2c(c1)CCC1C2CC[C@@]2(C)C1CC[C@@H]2NCCCCCCN1C(=O)CCC1=O (stereo partly drawn) ; retrieve measured fluorescence ratio (interference).
Response: 1

Request: Quick one: fluorescence ratio (interference) for N=c1ccn2c(n1)OC1[C@@H](O)[C@@H](CO)O[C@H]12 (stereo partly drawn) ?
Response: 1

Request: Item under review: O=C(O)/C=C/C(O)c1ccc(Cl)cc1 (stereo not drawn) . Reported fluorescence ratio (interference)?
Response: 1

Request: Which fluorescence ratio (interference) is reported for this compound? Clc1nccc2c1ccc1ccccc12
Response: 1

Request: # query: fluorescence ratio (interference) of entry CCCCCCCCCC(=O)NC(CN1CCOCC1)[C@H](O)c1ccccc1 (stereo partly drawn)
Response: 1

Request: What value of fluorescence ratio (interference) has been reported for the following compound? COc1ccc(-c2cc3ncc(C)n3c(Nc3ncccc3C(N)=O)n2)cc1OC
Response: 1

Request: Reported fluorescence ratio (interference) for CC1=C(C(=O)O)N2C(=O)[C@@H](NC(=O)C(N)C3=CCC=CC3)[C@H]2SC1 (stereo partly drawn) : what is it?
Response: 1

Request: I'd like to know its fluorescence ratio (interference). The compound in question is C[C@](Cc1ccc(O)c(O)c1)(NN)C(=O)O
Response: 1

Request: # query: fluorescence ratio (interference) of entry COc1ccc2c(c1)c(CC(=O)O)c(C)n2Cc1ccc(Cl)cc1
Response: 1

Request: Item under review: N[C@H](CCCP(=O)(O)O)C(=O)O . Reported fluorescence ratio (interference)?
Response: 1.1

Request: Request the reported fluorescence ratio (interference) associated with O=C1Nc2ccc(I)cc2C1=Cc1cc(Br)c(O)c(Br)c1
Response: 1
